Attribution: PubChem BioAssay (Tox21)

molecular target: Cytochrome P450 1A2 (Homo sapiens); experiment: Cytochrome P450 Family 1 Subfamily A Member 2 (CYP1A2) small molecule antagonists: luciferase reporter qHTS assay (AID 1671199); conditions: P450-Glo CYP1A2 enzyme, luciferin luminescence, 1 h; series mostly up to 115 µM; note: nearly all actives have a fitted effect of over 50% in size
Inconclusive results are not listed. Activity calls are given as the source filed them. Calls come from the whole dose curve; as a rule, active = well fitted inhibition curve with a large enough effect in the repeat runs; inconclusive = weak or mixed curves; inactive = no such curve, though single readings can be large or run the other way.
Possible outcomes: true (active), false (inactive)

>>> assigned_label("Oc1ccc(-c2ccccc2)c(Cl)c1")
"true"
>>> assigned_label("CC(C)(C)c1cc(CCC(=O)NCCCCCCNC(=O)CCc2cc(C(C)(C)C)c(O)c(C(C)(C)C)c2)cc(C(C)(C)C)c1O")
"false"
>>> assigned_label("C=C(C)C(=O)OCCC[Si](Cl)(Cl)Cl")
"false"
>>> assigned_label("CCCCCCCC(OC)OC")
"false"
>>> assigned_label("CCCCCCOc1cc(C)c(O)c(C)c1C")
"true"
>>> assigned_label("COc1cccc(OC)c1O")
"true"
>>> assigned_label("C=CC(=O)OCCC#N")
"false"
>>> assigned_label("CC(C)c1ccc(O)c(C(C)C)c1")
"true"

---

test: qHTS assay to identify small molecule agonists of the sonic hedgehog signaling (Shh) pathway - cell viability counter screen (AID 1259366); details: NIH/3T3 Gli1-Luc viability, CellTiter-Fluor, 24 h; series mostly up to 92.4 µM; note: nearly all actives have a fitted effect of over 50% in size
Records with an inconclusive call do not appear. Active and inactive are the calls of the source. Calls follow the shape of the dose curve; as a rule, active = well fitted cell-killing curve with a large enough effect in the repeat runs; inconclusive = weak or mixed curves, or effect the other way; inactive = flat fitted curve, though single readings scatter.
Outcome codes: label 1 (active), label 0 (inactive)

>>> assigned_label("COC(=O)NCCC[Si](OC)(OC)OC")
"label 0"
>>> assigned_label("Cc1c(-c2ccc(O)cc2)n(Cc2ccc(OCCN3CCCCCC3)cc2)c2ccc(O)cc12")
"label 1"
>>> assigned_label("C/C=C/CO")
"label 0"
>>> assigned_label("O=C(Nc1ccc(Cl)cc1)Nc1ccc(Cl)c(C(F)(F)F)c1")
"label 0"
>>> assigned_label("CCc1cccc(CC)c1N(COC)C(=O)CS(=O)(=O)O")
"label 0"
>>> assigned_label("CCN(CC)c1ccc(N)cc1")
"label 1"
>>> assigned_label("Cc1cnccn1")
"label 0"
>>> assigned_label("CCCCCCCC(C)=O")
"label 0"
>>> assigned_label("c1ccc2c(c1)CCC2")
"label 0"
>>> assigned_label("CC(=O)c1ccccc1N")
"label 0"
>>> assigned_label("Cc1nc(Nc2ncc(C(=O)Nc3c(C)cccc3Cl)s2)cc(N2CCN(CCO)CC2)n1")
"label 1"
>>> assigned_label("CN(C)c1ccc(N=NS(=O)(=O)O)cc1")
"label 0"
>>> assigned_label("O=C1Nc2ccc(Cl)cc2[C@@](C#CC2CC2)(C(F)(F)F)O1")
"label 0"
>>> assigned_label("Nc1ncnc2c1ncn2[C@@H]1O[C@H](COP(=O)(O)O)[C@@H](O)[C@H]1O")
"label 0"
>>> assigned_label("CNC(=S)NN")
"label 1"
>>> assigned_label("CC(C)=CCCC(C)O (stereo not drawn)")
"label 0"
>>> assigned_label("O=C1NCCN1CCN1CCC(c2cn(-c3ccc(F)cc3)c3ccc(Cl)cc23)CC1")
"label 1"
>>> assigned_label("CO[Si](CCCNCCNCCN)(OC)OC")
"label 0"
>>> assigned_label("Cc1ccc(O)cn1")
"label 0"
>>> assigned_label("CCCCCCCCCCCCCc1ccccc1")
"label 0"
>>> assigned_label("C=C(c1ccc(C(=O)O)cc1)c1cc2c(cc1C)C(C)(C)CCC2(C)C")
"label 0"
>>> assigned_label("CN1CN(C)CN(C)C1")
"label 0"
>>> assigned_label("O=C(O)CCn1c2c(c3ccccc31)C[C@H](NS(=O)(=O)c1ccc(F)cc1)CC2")
"label 0"
>>> assigned_label("C=CC(C)C#N (stereo not drawn)")
"label 0"
>>> assigned_label("CCN=C1C=CC(=C(c2ccc(N(CC)CC)cc2)c2ccc(N(CC)CC)cc2)c2ccccc21")
"label 1"
>>> assigned_label("CCc1c(Br)c(Br)c(Br)c(Br)c1Br")
"label 0"
>>> assigned_label("C/C=C/C(=O)C1=C(C)CCCC1(C)C")
"label 0"
>>> assigned_label("CC(C)C(=O)OCc1ccccc1")
"label 0"
